# target: Aurora kinase A (Homo sapiens)
# Sequence (O14965 whole entry): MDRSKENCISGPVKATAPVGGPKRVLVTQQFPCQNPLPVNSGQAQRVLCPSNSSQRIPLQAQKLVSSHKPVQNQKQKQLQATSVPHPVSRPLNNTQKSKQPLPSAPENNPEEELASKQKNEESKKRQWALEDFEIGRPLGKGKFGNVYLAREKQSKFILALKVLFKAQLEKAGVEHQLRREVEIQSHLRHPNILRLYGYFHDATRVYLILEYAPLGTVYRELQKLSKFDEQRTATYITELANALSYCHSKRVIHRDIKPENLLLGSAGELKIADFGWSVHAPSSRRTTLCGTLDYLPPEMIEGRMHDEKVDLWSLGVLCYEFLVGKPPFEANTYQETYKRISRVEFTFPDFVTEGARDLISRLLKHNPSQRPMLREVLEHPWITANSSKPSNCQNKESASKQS
# procedure-details: Inhibition of human recombinant Aurora A kinase using biotinylated peptide substrate preincubated for 15 mins with compound measured after 30 mins by fluorescence analysis
The threshold is 2 µM. Values of IC50 beneath it are tagged Yes; values meeting or exceeding it are tagged No.

These solved cases illustrate the format of a correct answer.
COc1ccc(NC(=O)c2cn(-c3ccccc3)nc2-c2ccc([N+](=O)[O-])cc2)cc1 :: Yes
CCOc1ccc(NC(=O)c2cn(-c3ccccc3)nc2-c2ccccc2)cc1 :: Yes
COc1ccc(NC(=O)c2cn(-c3ccccc3)nc2-c2ccc(OC)cc2)cc1 :: Yes
O=C(Nc1ccccc1)c1cn(-c2ccccc2)nc1-c1ccccc1 :: No
COc1ccc(NC(=O)c2cn(-c3ccccc3)nc2-c2ccccc2)cc1 :: Yes

Consider the additional compound presented here.
## Input Lab note: IC50 threshold 2 µM. Does this compound come in strictly under it? `O=C(Nc1ccc(Cl)cc1)c1cn(-c2ccccc2)nc1-c1ccc(Cl)cc1`
## Output No

Each recorded value in this set is attributed to ChEMBL document CHEMBL2029348.
